Origin of the recorded values: ChEMBL document CHEMBL4513216

Would you kindly list cytotoxicity at 10 µM for each of these compounds?
# TEST_DESCRIPTION: Toxicity liver stage against HepG2, at 10uM
# Assay type: cell-based
# Design: test concentration 10 uM, cell line HepG2-A16-CD81EGFP
# EXPERIMENTAL_CONDITIONS: human, HepG2-A16-CD81EGFP cells; read-out: INHIBITION
# number only, unit % dropped from output

Value of measured cytotoxicity at 10 µM for the entry CN(C)C(=O)c1c[nH]nc1C1CCN(S(=O)(=O)c2ccccc2)CC1 : -0.358

Value of measured cytotoxicity at 10 µM for the entry CN1CCN(Cc2cn3c(n2)CN(Cc2ccc(F)cc2)CC3)CC1 : -113

Value of measured cytotoxicity at 10 µM for the entry CC(=O)Nc1ccc(OCc2noc(C(=O)N3CCCCC3)n2)cc1 : -3.68

Value of measured cytotoxicity at 10 µM for the entry O=C(NCCOc1cccc(Cl)c1)C1CC(=O)N(CC2CC2)C1 (configuration not stated) : -0.98

Value of measured cytotoxicity at 10 µM for the entry COCCOc1ccc(NC(=O)C2CC(=O)N(C)C2)cn1 (configuration not stated) : -5.31

Value of measured cytotoxicity at 10 µM for the entry O=C(NC1CC1)c1nc(COc2ccc3c(c2)OCO3)no1 : 3.97

Value of measured cytotoxicity at 10 µM for the entry CCOC1CCN(C(=O)c2c(Cl)c3ccccc3n2C)CC1 : 6.56

----------
Would you kindly list cytotoxicity at 10 µM for each of these compounds?
# TEST_DESCRIPTION: Toxicity liver stage against HepG2, at 10uM
# Assay type: cell-based
# Design: test concentration 10 uM, cell line HepG2-A16-CD81EGFP
# EXPERIMENTAL_CONDITIONS: human, HepG2-A16-CD81EGFP cells; read-out: INHIBITION
# number only, unit % dropped from output

Value of measured cytotoxicity at 10 µM for the entry CC1(C)CNC(=O)c2nc(-c3nnc(-c4ccccc4)[nH]3)[nH]c2C1 : -5.79

Value of measured cytotoxicity at 10 µM for the entry COc1cc(N(C)CCCn2nc(C)cc2C)ncn1 : 1.6

Value of measured cytotoxicity at 10 µM for the entry COCCN1CCN(Cc2ccc(F)c(C)c2)[C@H]2CS(=O)(=O)C[C@H]21 : -25.5

Value of measured cytotoxicity at 10 µM for the entry CCCn1cc(C(=O)NCCc2ccncc2)c(C)n1 : 11.2

Value of measured cytotoxicity at 10 µM for the entry CNc1nc2c(s1)C(c1ccc(Cl)cc1Cl)CC(=O)N2 (stereo not drawn) : 7

Value of measured cytotoxicity at 10 µM for the entry Cc1noc(C)c1CN(C)CC1CCCN1c1cccnn1 (stereo not drawn) : 0.746

Value of measured cytotoxicity at 10 µM for the entry O=C(O)c1cccnc1CN1CCOc2ccccc2C1 : 7.66

Value of measured cytotoxicity at 10 µM for the entry CCCc1nnc(N2CCN(c3ccccc3OCC)CC2)o1 : 3.88

Value of measured cytotoxicity at 10 µM for the entry COCc1cc(N(C)Cc2ncnn2C)nc(C(C)(C)C)n1 : 6.39

Value of measured cytotoxicity at 10 µM for the entry O=C(NCCNCC1CNc2ccnn2C1)c1ccc(F)cc1 (stereo not drawn) : -8.75

Value of measured cytotoxicity at 10 µM for the entry Cc1ccc(Br)c(S(=O)(=O)NCc2ccnn2C)c1 : 0.67

Value of measured cytotoxicity at 10 µM for the entry CC1c2ccc(F)cc2CCN1C(=O)c1nc(=O)[nH][nH]1 (stereo not drawn) : 15.6

Value of measured cytotoxicity at 10 µM for the entry Cc1ccc(C(=O)Nc2ccc(S(=O)(=O)/N=C3\CCCN3C)cc2)s1 : 0.174

Value of measured cytotoxicity at 10 µM for the entry O=C(NCc1cc2ccccc2s1)c1cc(CN2CCCC(O)C2)on1 (stereo not drawn) : -40

Value of measured cytotoxicity at 10 µM for the entry Cc1cnn(CCNCc2nnc(C3CC3)o2)c1 : -7.89

Value of measured cytotoxicity at 10 µM for the entry O=C([C@H]1COC[C@H]2CN(C3CCOCC3)C[C@H]21)N1CCC(F)CC1 : -112

Value of measured cytotoxicity at 10 µM for the entry COCCN1CCN(S(=O)(=O)C2CC2)Cc2cccnc21 : 4.73

Value of measured cytotoxicity at 10 µM for the entry Cc1cc(C)cc(NC(=O)CC2CN(Cc3ccccc3)CCO2)c1 (stereo not drawn) : -8.46
